# Test system: TNFα
# assay-explanation: Cytokine Release from Human PBMCs: TNFα
# Format: cell-based
# test-settings: LPS, 24 hours, Concentration 100 μM
measure-name: TNFα % of DMSO control

Would you please look over these solved cases?
- compound: "C[C@@H](O)CCO [(R) 1,3-butanediol]"
  recorded-measurement: "= ((=) 90% > <110% DMSO)"
- compound: "CC(=O)O [acetate]"
  recorded-measurement: "= ((=) 90% > <110% DMSO)"
- compound: "Oc1ccc(C=Cc2cc(O)cc(O)c2)cc1 [resveratrol]"
  recorded-measurement: "+ ((+) 50% > <90% DMSO)"
- compound: "O=c1c(O)c(-c2ccc(O)c(O)c2)oc2cc(O)cc(O)c12 [quercetin]"
  recorded-measurement: "+ ((+) 50% > <90% DMSO)"

Task: Data request, read-out TNFα % of DMSO control, for O=C[C@H](O)[C@@H](O)[C@@H](O)CO [L-arabinose]
Result: + ((+) 50% > <90% DMSO)

Task: Same thing, different compound: CCC(=O)O [propionate]
Result: + ((+) 50% > <90% DMSO)
